# ASSAY SYSTEM: Transient receptor potential cation channel subfamily V member 3 (Homo sapiens, UniProt Q8NET8)
# Sequence (Q8NET8 whole entry): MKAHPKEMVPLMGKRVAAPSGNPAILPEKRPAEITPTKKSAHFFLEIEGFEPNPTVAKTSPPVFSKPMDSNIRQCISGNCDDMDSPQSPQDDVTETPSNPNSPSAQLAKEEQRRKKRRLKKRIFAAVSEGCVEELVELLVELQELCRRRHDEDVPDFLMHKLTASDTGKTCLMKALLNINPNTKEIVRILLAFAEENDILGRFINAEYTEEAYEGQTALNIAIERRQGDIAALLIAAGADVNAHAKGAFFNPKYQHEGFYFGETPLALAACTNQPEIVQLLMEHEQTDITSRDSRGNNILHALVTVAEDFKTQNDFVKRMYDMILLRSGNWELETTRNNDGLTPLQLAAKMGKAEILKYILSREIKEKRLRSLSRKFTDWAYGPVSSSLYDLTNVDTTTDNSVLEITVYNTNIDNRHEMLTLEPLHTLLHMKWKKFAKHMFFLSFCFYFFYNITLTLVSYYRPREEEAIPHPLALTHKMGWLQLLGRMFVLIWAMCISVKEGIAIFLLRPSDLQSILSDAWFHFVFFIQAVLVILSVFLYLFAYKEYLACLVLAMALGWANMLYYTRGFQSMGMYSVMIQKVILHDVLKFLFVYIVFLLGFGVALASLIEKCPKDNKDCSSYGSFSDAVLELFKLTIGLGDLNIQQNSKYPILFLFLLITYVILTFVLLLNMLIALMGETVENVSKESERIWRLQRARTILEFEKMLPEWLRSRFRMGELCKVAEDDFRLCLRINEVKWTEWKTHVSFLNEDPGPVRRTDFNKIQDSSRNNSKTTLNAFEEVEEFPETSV
# PROTOCOL NOTES: Inhibition of human TRPV3 expressed in CHO cells assessed as reduction in 2-APB induced channel current at +80 mV by whole-cell patch clamp electrophysiology
# Type: cell-based
pIC50: −log10 of the molar value.

{"STRUCTURE": "C=C1CC[C@@H]2[C@](C)(CO)[C@H](O)CC[C@@]2(C)[C@@H]1/C=C/C1=CCOC1=O", "pIC50": 6.10}

Where these numbers come from: ChEMBL document CHEMBL5576094
